Test: Pharmacokinetic studies in human, Compound I in plasma by LC/MS/MS
Type: in vivo
Details: human, plasma, iv, 475 mg/m2, Group 9, 475 mg/m^2 IV, Day 15, mean, n = 4

compound	valueUnits	Vd
Cc1cnc(CNC(=O)c2c(=O)c3ccc(N4CCCN(C)CC4)nc3n3c2sc2ccccc23)cn1 [Compound I]	L	2570

---

Test: Pharmacokinetic studies in human, Compound I in plasma by LC/MS/MS
Format: in vivo
Conditions: human, plasma, iv, 325 mg/m2, Group 6, 325 mg/m^2 IV, Day 8, mean, n = 3; read-out: T1/2 (converted)
measuredMetric: half-life (h)

Cc1cnc(CNC(=O)c2c(=O)c3ccc(N4CCCN(C)CC4)nc3n3c2sc2ccccc23)cn1 86.5

---

Assay: Pharmacokinetic studies in human, Compound I in plasma by LC/MS/MS
Type: in vivo
Conditions: human, plasma, iv, 200 mg/m2, Group 4, 200 mg/m^2 IV, Day 1, mean, n = 4
measuredMetric: Cmax (ng/mL)

Cc1cnc(CNC(=O)c2c(=O)c3ccc(N4CCCN(C)CC4)nc3n3c2sc2ccccc23)cn1 8950

---

Tested on: MV 4; 11
Test: Alamar Blue cell viability assay, MV 4; 11
Format: cell-based
Conditions: Homo sapiens, MV4-11, 11, Leukemia
pEC50: −log10 of the molar value.
measuredMetric: pEC50

Cc1cnc(CNC(=O)c2c(=O)c3ccc(N4CCCN(C)CC4)nc3n3c2sc2ccccc23)cn1 7.92

---

Test: Pharmacokinetic studies in human, Compound I in plasma by LC/MS/MS
Assay type: in vivo
Details: human, plasma, iv, 50 mg/m2, Group 1, 50 mg/m^2 IV, Day 1, mean, n = 4
measuredMetric: clearance (mL/min)

Cc1cnc(CNC(=O)c2c(=O)c3ccc(N4CCCN(C)CC4)nc3n3c2sc2ccccc23)cn1 265

---

Assay: Pharmacokinetic studies in human, Compound I in plasma by LC/MS/MS
Assay type: in vivo
Details: human, plasma, iv, 200 mg/m2, Group 4, 200 mg/m^2 IV, Day 8, mean, n = 4
Description: […] Levels of Compound I in patient's plasma were analyzed by liquid chromatography tandem mass spectrometry (LC/MS/MS) assay. […] The concentrations of Compound I in human plasma samples collected from subjects of as discussed above. Compound I concentrations in plasma samples were measured based on 9 levels of calibration standards from 5.00 to 5000 ng/mL, and 3 levels of QC at 15.0 ng/mL (low), 2500 ng/mL (mid), and 4000 ng/mL (high). […]
measuredMetric: Vd (L)

Cc1cnc(CNC(=O)c2c(=O)c3ccc(N4CCCN(C)CC4)nc3n3c2sc2ccccc23)cn1 2050

---

Assay: Pharmacokinetic studies in human, Compound I in plasma by LC/MS/MS
Format: in vivo
Conditions: human, plasma, iv, 475 mg/m2, Group 7, 475 mg/m^2 IV, Day 8, mean, n = 3
measuredMetric: Tmax (min)

compound	reportedMeasurement
Cc1cnc(CNC(=O)c2c(=O)c3ccc(N4CCCN(C)CC4)nc3n3c2sc2ccccc23)cn1 [Compound I]	40.7
